# systemName: human recombinant cytochrome P450 3A4 (Homo sapiens (Human))
# Sequence (P08684 whole entry): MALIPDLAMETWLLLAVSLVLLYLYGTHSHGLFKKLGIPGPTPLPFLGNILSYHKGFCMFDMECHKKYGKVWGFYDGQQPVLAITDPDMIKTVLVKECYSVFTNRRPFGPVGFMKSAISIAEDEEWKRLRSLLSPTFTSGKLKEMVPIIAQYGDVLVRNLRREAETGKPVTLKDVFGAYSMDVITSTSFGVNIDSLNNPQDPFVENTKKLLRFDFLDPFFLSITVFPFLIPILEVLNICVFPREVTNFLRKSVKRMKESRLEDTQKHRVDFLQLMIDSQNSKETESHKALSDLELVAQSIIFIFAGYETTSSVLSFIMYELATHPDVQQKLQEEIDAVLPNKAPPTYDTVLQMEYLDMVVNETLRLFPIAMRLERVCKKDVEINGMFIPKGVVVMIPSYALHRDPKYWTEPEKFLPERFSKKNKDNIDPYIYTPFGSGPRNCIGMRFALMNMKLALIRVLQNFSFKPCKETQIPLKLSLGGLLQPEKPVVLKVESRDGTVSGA
# assayText: CYP3A4 inhibition, Biological Test Example 6
# Format: in vitro ADME
pIC50: −log10 of the molar value.
So I've got a bunch of compounds here, and I need their pIC50 values.

Solved entries (count: 5):
structure	pIC50
C[C@@H](c1ccc(-c2ccn(C)c(=O)c2)cc1)N1CC[C@](CC(C)(C)O)(c2ccccc2)OC1=O	< 4.30
C[C@@H](c1ccc(-c2ccn(C)c(=O)c2)cc1)N1CC[C@](CC(C)(C)O)(c2ccccc2F)OC1=O	< 4.30
C[C@@H](c1ccc(-c2ccc(=O)n(C)c2)cc1)N1CC[C@](CC(C)(C)O)(c2ccc(F)cc2)OC1=O	< 4.30
C[C@@H](c1ccc(-c2cc(=O)n(C)cc2F)cc1)N1CC[C@](CC(C)(C)O)(c2ccccc2)OC1=O	< 4.30
CCn1cc(-c2ccc([C@H](C)N3CC[C@](CC(C)(C)O)(c4ccccc4)OC3=O)cc2)ccc1=O	< 4.30

Need pIC50 for each of these compounds.
1. C[C@@H](c1ccc(-c2ccn(C3CC3)c(=O)c2)cc1)N1CC[C@](CC(C)(C)O)(c2ccccc2F)OC1=O
2. CC[C@@H](c1ccc(-c2ccc(=O)n(C)c2)cc1)N1CC[C@](CC(C)(C)O)(c2ccccc2)OC1=O
3. Cc1cc(-c2ccc([C@H](C)N3CC[C@](CC(C)(C)O)(c4ccccc4)OC3=O)cc2)cc(=O)n1C
4. C[C@@H](c1ccc(-c2ccc(=O)n(C)c2)cc1)N1CC[C@](CCCO)(c2ccccc2)OC1=O
5. C[C@@H](c1ccc(-c2ccn(CC(C)(C)O)c(=O)c2)cc1)N1CC[C@](CC(C)(C)O)(c2ccccc2)OC1=O
6. Cc1cc(-c2ccc([C@H](C)N3CC[C@](CC(C)(C)O)(c4ccccc4)OC3=O)cc2)cn(C)c1=O

Ans:
["< 4.30", "< 4.30", "< 4.30", "< 4.30", "< 4.30", "< 4.30"]

Need pIC50 for each of these compounds.
1. CC(C)n1cc(-c2ccc([C@H](C)N3CC[C@](CC(C)(C)O)(c4ccccc4)OC3=O)cc2)ccc1=O
2. CC[C@@H](c1ccc(-c2ccc(=O)n(C)c2)cc1)N1CC[C@](CCO)(c2ccccc2)OC1=O

Ans:
< 4.30
< 4.30
